Attribution: patent US20180291096A1

Target Of Assay: T1, recombinant human IL-23 (hrIL-23), produced at Centocor (human, UniProt P29460 23-328)
T1 construct: p19-p40 heterodimer; also called rhIL-23; huIL-23
T1 sequence 1: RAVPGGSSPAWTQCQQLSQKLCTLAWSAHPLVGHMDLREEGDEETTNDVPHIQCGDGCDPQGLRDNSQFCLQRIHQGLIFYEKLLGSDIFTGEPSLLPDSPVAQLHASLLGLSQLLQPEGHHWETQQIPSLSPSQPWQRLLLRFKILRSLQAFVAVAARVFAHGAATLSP
T1 sequence 2: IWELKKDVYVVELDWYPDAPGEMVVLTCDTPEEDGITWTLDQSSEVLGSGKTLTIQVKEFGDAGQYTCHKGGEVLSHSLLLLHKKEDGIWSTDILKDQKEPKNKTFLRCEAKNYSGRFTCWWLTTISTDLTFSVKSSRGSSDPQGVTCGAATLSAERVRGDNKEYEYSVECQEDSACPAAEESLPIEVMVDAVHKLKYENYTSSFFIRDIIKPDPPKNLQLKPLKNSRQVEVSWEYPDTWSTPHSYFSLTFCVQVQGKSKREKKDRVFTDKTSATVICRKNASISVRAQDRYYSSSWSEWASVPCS
Procedure Summary: IL-23/IL-23R competition assay
pIC50: −log10 of the molar value.

# Binder, pIC50
rows = [
    ("MOR05055 Fab (Fab, V domains shown, Fab) VH: QVQLVESGGGLVQPGGSLRLSCAASGFTFSSFGMSWVRQAPGKGLEWVSNIEHKYLGYATVYAASVKGRFTISRDNSKNTLYLQMNSLRAEDTAVYYCARYWGTPYLMQFDNWGQGTLVTVSS VL: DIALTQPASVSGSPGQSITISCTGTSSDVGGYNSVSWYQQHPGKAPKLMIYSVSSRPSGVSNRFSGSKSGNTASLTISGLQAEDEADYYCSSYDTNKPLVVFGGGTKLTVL", 9.10),
]
